TARGET DESC: GAR transformylase (Sus scrofa)
ASSAY NOTES: In vitro inhibition of hog liver GAR transformylase with (6R)-10-formyl-FH4 as cofactor
PROPERTY MEASURED: IC50

Some molecules with known IC50 results, for comparison:
MOLECULE | IC50
Nc1nc(N)c(CCCNc2ccc(C(=O)NC(CCC(=O)O)C(=O)O)c(F)c2)c(=O)[nH]1 (centres undefined) | 3.1 µM
Nc1nc(N)c(CCCOc2ccc(C(=O)NC(CCC(=O)O)C(=O)O)cc2)c(=O)[nH]1 (centres undefined) | 5.3 µM
Nc1nc(N)c(CCCSc2ccc(C(=O)NC(CCC(=O)O)C(=O)O)cc2)c(=O)[nH]1 (centres undefined) | 2.6 µM
Nc1nc(N)c(CCCNc2ccc(C(=O)NC(CCC(=O)O)C(=O)O)cc2F)c(=O)[nH]1 (centres undefined) | 3.5 µM
Nc1nc[nH]c(=O)c1CCCNc1ccc(C(=O)NC(CCC(=O)O)C(=O)O)cc1 (centres undefined) | 52 µM
Nc1nnc(C2CCN(c3ccc(C(=O)NC(CCC(=O)O)C(=O)O)cc3)C2=O)c(=O)[nH]1 (centres undefined) | > 100 µM
Nc1nc(N)c(CCCNc2ccc(C(=O)NC(CCC(=O)O)C(=O)O)c(Cl)c2)c(=O)[nH]1 (centres undefined) | 6.6 µM
Nc1nc(N)c(CCCCNc2ccc(C(=O)NC(CCC(=O)O)C(=O)O)cc2)c(=O)[nH]1 (centres undefined) | 18.2 µM

As a next step, examine the molecule that follows.
// Cc1cc(C(=O)NC(CCC(=O)O)C(=O)O)ccc1NCCCc1c(N)nc(N)[nH]c1=O (centres undefined) : IC50 value = 6.1 µM

Values were extracted from BindingDB's records for doi:10.1021/jm00086a008.
